Attribute: inhibition
Molecular target: Glucose transporter (Leishmania mexicana)
Experiment: ST_JUDE_LEISH: Cytotoxicity at 2uM final concentration against transgenic Leishmania Mexicana promastigotes LmGT2 that are glucose transport deficient and complemented with the L. Mexicana glucose transporter 2. Activity is measured by DNA content using SYBR green in vitro
Type: functional
Answer format: numeric, % implied, no suffix.

CCC(CC)(CCC#N)CN(C[C@@H](O)[C@H](Cc1ccccc1)NC(=O)OC(C)(C)C)S(=O)(=O)c1ccc(OC)cc1 ... 0.65
CCCCCN1CCCC(NS(=O)(=O)c2ccc(C(=O)Nc3ccc(C(F)(F)F)cc3)cc2)C1 (stereo not given) ... 1.89
COc1ccc(CN2CCC2=O)c(OC)c1 ... 3.38
CC(C)CCn1c(Sc2ccc(C#N)c([N+](=O)[O-])c2)nnc1-c1ccc(N(C)C)cc1 ... 0.35
Nc1nc(N)c2cc3ccc(OCc4ccccc4)cc3nc2n1 ... 6.89

The measured inhibition associated with `Cc1cccc2nc(-c3cccc(-c4ccc(CNCc5ccccc5)cc4)c3)[nH]c12` reads 1.78

The measured inhibition associated with `Oc1ccc2[nH]c(-c3cccs3)nc2c1CN1CCC(N2CCCC2)CC1` reads 5.89

The measured inhibition associated with `Cc1ccc(C(=O)c2oc3ccc4c(C)cc(=O)oc4c3c2C)cc1` reads 0.22

The measured inhibition associated with `Cc1cccc2nc(-c3ccc(-c4cccc(NC(=O)CCc5c[nH]cn5)c4)cc3)[nH]c12` reads 2.35

The measured inhibition associated with `N#Cc1cccc(NC(=O)Nc2cccc(-c3cccc(-c4nc5ccccc5[nH]4)c3)c2)c1` reads 3.75

###

Molecular target: Solute carrier family 2, facilitated glucose transporter member 1 (Homo sapiens) (UniProt P11166)
Sequence (P11166 whole entry): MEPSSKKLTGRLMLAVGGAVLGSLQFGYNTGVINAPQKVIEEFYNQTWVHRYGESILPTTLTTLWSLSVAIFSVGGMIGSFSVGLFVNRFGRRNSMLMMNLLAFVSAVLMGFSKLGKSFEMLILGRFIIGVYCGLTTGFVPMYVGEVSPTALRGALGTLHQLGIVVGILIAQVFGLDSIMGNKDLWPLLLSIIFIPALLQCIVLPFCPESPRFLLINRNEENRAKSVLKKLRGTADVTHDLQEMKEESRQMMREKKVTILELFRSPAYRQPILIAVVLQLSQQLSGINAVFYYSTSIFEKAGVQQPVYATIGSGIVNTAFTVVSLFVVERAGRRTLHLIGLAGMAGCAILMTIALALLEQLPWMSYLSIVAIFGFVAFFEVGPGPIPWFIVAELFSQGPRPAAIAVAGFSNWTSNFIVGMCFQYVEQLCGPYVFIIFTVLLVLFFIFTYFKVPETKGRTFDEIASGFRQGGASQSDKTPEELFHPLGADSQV
Experiment: ST_JUDE_LEISH: Cytotoxicity at 2uM final concentration against transgenic Leishmania Mexicana promastigotes LmGLUT1 that are glucose transport deficient and complemented with the human glucose transporter GLUT1. Activity is measured by DNA content using SYBR green in vitro
Format: functional
Attribute: inhibition
Answer format: numeric, % implied, no suffix.

Would you please look over these solved cases?
O=c1c(Br)c(C(F)(F)F)[nH]c2ccc(Oc3ccccc3)cc12 ... 2.41
Cc1cc(Br)c(OCCCON2C(=N)N=C(N)NC2(C)C)c(Br)c1 ... 2.66

Now, please, on to the next compound.
The measured inhibition associated with `CN(CCCc1c[nH]c2ccccc12)CC1CCN(C(=O)/C=C/c2ccc(Cl)c(Cl)c2)CC1` reads -3.42

###

Target: Hexose transporter 1 (Plasmodium falciparum)
Experiment: ST_JUDE_LEISH: Cytotoxicity at 2uM final concentration against transgenic Leishmania Mexicana promastigotes LmPfHT that are glucose transport deficient and complemented with the Plasmodium falciparum hexose transporter. Activity is measured by DNA content using SYBR green in vitro
Assay type: functional
Attribute: inhibition
Answer format: numeric, % implied, no suffix.

Would you please look over these solved cases?
O=C(/C=C/c1ccc(Cl)c(Cl)c1)NCCCCCN1CCC(NC(=O)c2ccc([N+](=O)[O-])cc2)CC1 ... 9.99
COc1cc(NC(=O)CCCCCCCN2CCN(C)CC2)c2ncccc2c1 ... 3.78

The measured inhibition associated with COc1ccc2nccc(N(C)CC3(O)CCN(CC(O)c4ccc5c(c4)NC(=O)CS5)CC3)c2n1 (stereo not given) reads -0.78

The measured inhibition associated with `COc1cc(NC(=O)/C=C/c2cc(F)cc(F)c2F)cc(OCCN2CCN(CCN3CCOCC3)CC2)c1` reads 1.58

The measured inhibition associated with `COc1ccc2[nH]ccc(=NN=Cc3ccccc3Cl)c2c1` reads 12.6

###

Target: Solute carrier family 2, facilitated glucose transporter member 1 (Homo sapiens) (UniProt P11166)
Assay: ST_JUDE_LEISH: Cytotoxicity at 2uM final concentration against transgenic Leishmania Mexicana promastigotes LmGLUT1 that are glucose transport deficient and complemented with the human glucose transporter GLUT1. Activity is measured by DNA content using SYBR green in vitro
Type: functional
Attribute: inhibition

O=C(/C=C/c1ccccc1O)NCCCCCN1CCC(c2c[nH]c3ccccc23)CC1 ... 3.82%
Cc1ccc2nc3ccccc3c(NCCN3CCN(C)CC3)c2c1 ... 39.1%
CCOc1cccc(C(=O)Nc2cccc(CN3CCCN(Cc4cccc(O)c4)CC3)c2)c1 ... 4.67%
CCC(C(=O)Nc1ccccc1)n1nc(-c2ccc(C)c(S(=O)(=O)N3CCCCC3)c2)ccc1=O (stereo not given) ... 3.12%
CCc1ccc(CN2CCC(CN(c3ccc(N4CCOCC4)c(F)c3)S(=O)(=O)c3ccc(C(C)(C)CC)cc3)CC2)cc1 ... 3.54%

The measured inhibition associated with `Cc1cc(CNCCCCCCCNCc2ccc(Cl)cc2)ccc1O` reads 0.64%

The measured inhibition associated with `CCc1cc(OC)ccc1C1CCN(CCCCNC(=O)c2ccc(NC(=O)c3ccc(Cl)cc3)cc2)CC1` reads 3.47%

The measured inhibition associated with CC(C)N1CCN(C(CN2CCN(CCCOc3ccccc3-c3ccccc3)CC2)c2ccc(F)cc2)CC1 (stereo not given) reads 6.32%

The measured inhibition associated with `CN(C)CCOc1cc(NC(=O)Nc2cccc([N+](=O)[O-])c2)ccc1I` reads 13%

The measured inhibition associated with `O=C(CCNc1ccnc(NCC2CCCCC2)n1)Nc1ccccc1` reads 7.25%

The measured inhibition associated with Cc1ccc(NC(=O)C(C)Sc2nnc(-c3ccccc3Br)[nH]2)cc1 (stereo not given) reads -1.5%

The measured inhibition associated with `Cc1c(C2CCN(CCCCNC(=O)c3ccc(-c4ccc(C#N)cc4)cc3)CC2)c2ccccc2n1CCO` reads 3.84%

The measured inhibition associated with C=CCc1ccccc1OCC(O)CN(C1CCCCC1)C1CCCCC1 (stereo not given) reads -1.79%

The measured inhibition associated with `Cc1ccc(Nc2nc(C)cc(N3CCN(c4ccccc4)CC3)n2)cc1` reads 5.18%

The measured inhibition associated with `C=CCn1c(Sc2ccc(C#N)c([N+](=O)[O-])c2)nnc1-c1cccc(Cl)c1` reads -1.46%

The measured inhibition associated with `N=C1N=C(N)NC2(CCCCC2)N1OCCCOc1cccc2ccccc12` reads 54.1%

The measured inhibition associated with `CCc1cc2c(cc1OCCN(C)C)N(C(=O)Nc1ccc(-c3ccncc3)c(Cl)c1)CC2` reads 6.82%

The measured inhibition associated with `Cc1cccc2nc(-c3cccc(-c4ccc(CNCc5ccc(S(C)(=O)=O)cc5)cc4)c3)[nH]c12` reads 11.9%

The measured inhibition associated with `CC(=O)Nc1ccc(S(=O)(=O)N2CCN(c3nc(NC4CCCC4)c4ccccc4n3)CC2)cc1` reads 0.69%

The measured inhibition associated with `Cc1cc(C2CCN(CCCCNC(=O)c3ccc(NC(=O)c4ccc(Cl)cc4)cc3)CC2)c(C)cc1OCc1ccccn1` reads 2.54%

###

Attribute: inhibition
Target: Hexose transporter 1 (Plasmodium falciparum)
Assay: ST_JUDE_LEISH: Cytotoxicity at 2uM final concentration against transgenic Leishmania Mexicana promastigotes LmPfHT that are glucose transport deficient and complemented with the Plasmodium falciparum hexose transporter. Activity is measured by DNA content using SYBR green in vitro
Format: functional
Answer format: numeric, % implied, no suffix.

The measured inhibition associated with `CCN(C)CCCn1c(N(C)C)nc2cc(-n3cnc4cc(-c5ccc(Cl)cc5)sc4c3=O)ccc21` reads 10.9

The measured inhibition associated with `Cc1cc(O)c(-c2ccc(Sc3ccc(Cl)cc3)cc2)c(C)n1` reads 3.32

The measured inhibition associated with CCCC(CNCc1cccc(I)c1)CNc1cc(=O)c2ccccc2[nH]1 (stereo not given) reads 2.83

The measured inhibition associated with `O=C(NCCN1CCCCC1)c1cc2cc(-c3ccccc3)ccc2n1S(=O)(=O)c1ccccc1` reads 74.7

The measured inhibition associated with `CCc1cc(NCc2ccncc2)nc(Nc2ccc(F)cc2)n1` reads 6.44

The measured inhibition associated with `COc1ccc(CNCc2cccc(-c3ccc(-c4nc5ccccc5[nH]4)cc3)c2)cc1` reads 1.89

The measured inhibition associated with `CC(=O)Nc1ccc(C(=O)Nc2cccc(-c3csc(-c4nc5ccccc5[nH]4)c3)c2)cn1` reads 1.56

###

Biological target: Solute carrier family 2, facilitated glucose transporter member 1 (Homo sapiens) (UniProt P11166)
Test: ST_JUDE_LEISH: Cytotoxicity at 2uM final concentration against transgenic Leishmania Mexicana promastigotes LmGLUT1 that are glucose transport deficient and complemented with the human glucose transporter GLUT1. Activity is measured by DNA content using SYBR green in vitro
Type: functional
recorded.metric: inhibition (%)
Answer format: numeric, % implied, no suffix.

The measured inhibition associated with N#Cc1cccc(C(O)C2CN(CCC3CCCCC3)CCC2(O)c2ccccc2)c1 (centres undefined) reads -1.82

The measured inhibition associated with `C=C(NC(=O)C1CCCCC1)C(=O)OC` reads -0.71

The measured inhibition associated with `COc1c(C2CCN(CCCCNC(=O)c3ccc(-c4ccc(Cl)cc4)c(O)c3)CC2)ccc2c1CCCC2` reads 2.96

The measured inhibition associated with `N#Cc1ccc(-c2ccc(C(=O)Nc3ccc4c(c3)CCN(C3CCC3)CC4)nc2)cc1` reads 3.57

The measured inhibition associated with CCCCCC1c2[nH]c3ccccc3c2CCN1C(=O)OCc1ccccc1 (centres undefined) reads 7.38

The measured inhibition associated with `Clc1ccc(Cl)c2[nH]c(CNCCCNc3nc4ccccc4[nH]3)cc12` reads 0.92

The measured inhibition associated with `O=C(Nc1ccc(OC2CCN(Cc3ccc(F)cc3)CC2)c(Cl)c1)c1ccccc1` reads -3.58

Reference for the values: ChEMBL document CHEMBL3433997
